Provide the reported melting point of each item.
Structures can show the parent of a compound that is named as a salt.

Request: melting point for O=C(c1cccc(-c2ccc3c(c2)COC2(CCN(C4CCC4)CC2)O3)c1)N1CCCC1 [Example 57] ?
Response: 221.7 °C

Request: # melting point lookup, item Fc1cncc(-c2ccc3c(c2)COC2(CCN(C4CCC4)CC2)O3)c1 [Example 4]
Response: 140 to 145 °C

Request: Record request: melting point value, item COCCNC(=O)c1ccc(-c2ccc3c(c2)CCC2(CCN(C4CCC4)CC2)O3)cc1Cl [Example 332]
Response: 231 to 232 °C

Request: Quick check: melting point of COC(=O)c1ccc(N2CCN(c3ccc4c(c3)CCC3(CCN(C5CCC5)CC3)O4)CC2)nc1 [Example 385] ?
Response: 202 to 203 °C

Request: Give its melting point value. Item: O=C(Nc1nccs1)c1ccc(-c2ccc3c(c2)COC2(CCN(C4CCC4)CC2)O3)cc1 [Example 43]
Response: 242 to 243 °C

Request: Look up melting point: CC(C)CN1CC(c2ccc3c(c2)COC2(CCN(C4CCC4)CC2)O3)CCC1=O (centres unmarked) (as salt: HCl) [Example 564]
Response: 98 to 103 °C

Request: Which value of melting point has been reported for O[C@@H]1CCN(c2ccc3c(c2)COC2(CCN(C4CCC4)CC2)O3)C1 [Example 347] in the records?
Response: 70.2 to 72.2 °C

Request: Would you mind telling me what melting point value was observed for COc1ccc(Oc2ccc3c(c2)CCC2(CCN(C4CCC4)CC2)O3)cn1 [Example 481] ?
Response: 232 to 234 °C

Request: # query: melting point of entry O=c1ccc(-c2ccc3c(c2)COC2(CCN(C4CCC4)CC2)O3)cn1CC(F)(F)F [Example 710]
Response: 158 to 160 °C

Request: If you can, please state the reported melting point value of COc1cc(-c2ccc3c(c2)COC2(CCN(C4CCC4)CC2)O3)ccc1C(=O)N1CCOCC1 [Example 636] .
Response: 94 to 96 °C

Request: melting point lookup needed for CN(C)C(=O)N1CCC(COc2ccc3c(c2)CCC2(CCN(C4CCC4)CC2)O3)CC1 [Example 576] , thanks.
Response: 230 to 232 °C

Request: Which melting point value belongs to O=C(C1CCCN(c2ccc3c(c2)CCC2(CCN(C4CCC4)CC2)O3)C1)N1CCCC1 (centres unmarked) [Example 451] ?
Response: 305 to 307 °C

Request: Given CCN(CC)C(=O)N1CCN(c2ccc3c(c2)CCC2(CCN(C4CCC4)CC2)O3)CC1 [Example 394] , state its recorded melting point.
Response: 272 to 274 °C

Request: Consider the molecule shown here: CC(=O)NC1CCN(c2ccc3c(c2)COC2(CCN(C4CCC4)CC2)O3)CC1 [Example 328] What is its recorded melting point?
Response: 190.8 to 192 °C

Request: May I ask what melting point has been recorded for CCc1cc(-c2ccc3c(c2)COC2(CCN(C4CCC4)CC2)O3)c(C)[nH]c1=O [Example 808] ?
Response: 211 to 213 °C

Request: Entry CN(C)C(=O)CCc1ccc2c(c1)CCC1(CCN(C3CCC3)CC1)O2 [Example 603] : reported melting point = ?
Response: 180 to 182 °C

Request: # query: melting point of entry Cc1ccc(C#N)c(Nc2ccc3c(c2)COC2(CCN(C4CCC4)CC2)O3)n1 [Example 236]
Response: 56 to 58 °C
